Reference for the values: patent US20260356856A1

Below: a set of entries, each annotated with reported IC50.
- subjectOfTest: KRas WT (Homo sapiens)
- Construct: Biotinylated KRas (corresponding to amino acids 1-169, produced at Accelegan Inc.); biotin (biotinylated); purchased Accelegan Inc
- Sequence (P01116 1-169 isoform P01116-2): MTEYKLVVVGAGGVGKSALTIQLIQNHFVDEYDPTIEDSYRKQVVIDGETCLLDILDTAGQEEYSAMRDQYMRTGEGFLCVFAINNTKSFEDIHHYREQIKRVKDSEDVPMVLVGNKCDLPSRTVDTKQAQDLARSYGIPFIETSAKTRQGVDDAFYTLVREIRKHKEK
- assayName: KRas binding assay, TR-FRET displacement of Cy5 labelled tracer
- measurementSetup: 60-minute incubation at room temperature, 1% DMSO, pH 7.5
observedProperty: IC50 (nM)

compound	valueObserved
Cc1ccn(C(=O)C2CC3CN(c4nc(OC[C@@]56CCCN5C[C@H](F)C6)nc5c(F)c(-c6ccc(F)c7sc(N)c(C#N)c67)c(Cl)cc45)CC32)n1 (stereo partly drawn)	44
CCc1c(F)ccc2cc(O)cc(-c3ncc4c(N5CC[C@@H]6[C@H](C5)[C@@H]6C(=O)n5ccc(C)n5)nc(OC[C@@]56CCCN5C[C@H](F)C6)nc4c3F)c12	32
CC(=O)N(C)C(=O)CCCN(C)c1nc(OC[C@@]23CCCN2C[C@H](F)C3)nc2c(F)c(-c3ccc(F)c4sc(N)c(C#N)c34)c(Cl)cc12 (atropisomer, axis not shown; (aS)) [Example 260]	4
